Parameter growth: see the listing below.
System: NCI-H226 lung
Assay: NCI-60 one-dose screen, 48 h (100 = growth as untreated, 0 = no growth, -100 = all killed)
Settings: 10 µM unless noted
The panel holds about 83,000 compounds, 20% with a hit somewhere; the sample as a whole holds those more often. Calls of active or inactive are those of the source. The calls were made as follows: active = growth percent below 10; inactive = the rest.

// below: answered compounds
>  <smiles>
COc1cnc2c(c1)C(=O)c1c-2n(CCCNC(C)C)c(=O)c2cc(F)ccc12

>  <system_tested>
NCI-H226 lung

>  <growth>
-52.6% (active)

$$$$
>  <smiles>
COc1ccc2cc(C3=CC(=O)CCC3)ccc2c1

>  <system_tested>
NCI-H226 lung

>  <growth>
55.5% (inactive)

$$$$
>  <smiles>
CC(=O)Nc1cc2c3c(cccc3c1)-c1ccccc1-2

>  <system_tested>
NCI-H226 lung

>  <growth>
37.4% (inactive)

$$$$
>  <smiles>
CC(C)N(Cc1ccccc1)c1c(Cl)ssc1=O

>  <system_tested>
NCI-H226 lung

>  <growth>
101% (inactive)

$$$$
>  <smiles>
COc1cc(/C=C/C(=O)C(C(=O)/C=C/c2ccc(OC(=O)CCNc3nnc(C)s3)c(OC)c2)C(=O)CCNc2nnc(C)s2)ccc1OC(=O)CCNc1nnc(C)s1

>  <system_tested>
NCI-H226 lung

>  <growth>
24.5% (inactive)

$$$$

Task item: Return reported growth. Input compound: `CC(=O)[C@H]1CC[C@H]2[C@@H]3C[C@H](C)C4=CC(=O)CC[C@]4(C)[C@H]3C(=O)C[C@]12C`
Reply: 104% (inactive)

Task item: Return reported growth. Input compound: `c1cc[n+](Cc2ccnc3ccccc23)cc1`
Reply: 93.9% (inactive)

Task item: Return reported growth. Input compound: `Nc1nc(Nc2ccccc2SSc2ccccc2Nc2nc(N)nc(C(Cl)(Cl)Cl)n2)nc(C(Cl)(Cl)Cl)n1`
Reply: 64.6% (inactive)

Task item: Return reported growth. Input compound: `O=C(CSc1ncc(-c2ccccc2)n1-c1ccccc1)Nc1ccc(-c2nc3ccccc3s2)cc1`
Reply: 103% (inactive)

Task item: Return reported growth. Input compound: `O=C(CNC(=O)c1cccc2ccccc12)Nc1ccccc1Cc1ccccc1`
Reply: 72.3% [5 µM] (inactive)

---

Tested on: UO-31 renal
Assay: NCI-60 one-dose screen, 48 h (100 = growth as untreated, 0 = no growth, -100 = all killed)
Conditions: 10 µM unless noted
About 83,000 compounds went through this panel and 20% of them were active in at least one assay; those are over-represented in the sample as a whole. Activity calls are given as the source filed them. Rule for the calls: active = growth percent below 10; inactive = the rest.
reported_property: growth

// below: answered compounds
>  <compound>
CSc1nc2nc3c(nc2c(=O)n1C)C(=O)c1ccccc1C3=O

>  <growth>
-86.1% (active)

$$$$
>  <compound>
O=C(Nc1cccc(Cl)c1)Nc1cccc(Cl)c1

>  <growth>
72.7% (inactive)

$$$$
>  <compound>
CCOC(=O)CCC(=O)O[C@H]1[C@H](O[C@@H]2[C@@H](C)[C@H](O[C@H]3C[C@@](C)(OC)[C@@H](O)[C@H](C)O3)[C@@H](C)C(=O)O[C@H](CC)[C@@](C)(O)[C@H](O)[C@@H](C)C(=O)[C@H](C)C[C@@]2(C)O)O[C@H](C)C[C@@H]1N(C)C

>  <growth>
67.7% (inactive)

$$$$
>  <compound>
C[C@H]1O[C@@H](O[C@H]2[C@@H](O)C[C@H](O[C@H]3[C@@H](O)C[C@H](O[C@H]4CC[C@]5(C)C6C[C@@H](O)[C@]7(C)[C@@H](C8=CC(=O)OC8)CC[C@]7(O)C6CC[C@@H]5C4)O[C@@H]3C)O[C@@H]2C)C[C@H](O)[C@@H]1O (some centres not stated)

>  <growth>
-82.4% (active)

$$$$
>  <compound>
Cc1ccc(-c2cc(-c3ccccc3)n(-c3ccccc3)n2)cc1

>  <growth>
79.1% (inactive)

$$$$

Task item: Return reported growth. Input compound: COc1cc(C2CC(c3ccc(C)cc3)=NN2C=O)ccc1OCCN(C)C (configuration not stated)
Reply: 64.5% (inactive)

Task item: Return reported growth. Input compound: `Cc1cc(C)c2c(N)c3cccc(C)c3nc2n1`
Reply: -84.5% (active)

---

Test system: SW-620 colon
Assay: NCI-60 one-dose screen, 48 h (100 = growth as untreated, 0 = no growth, -100 = all killed)
Conditions: 10 µM unless noted
About 83,000 compounds went through this panel and 20% of them were active in at least one assay; those are over-represented in the sample as a whole.
reported_property: growth (%)
Express the result in % but write the number alone.

>  <molecule>
COC(=O)c1cc2oc(/C=N\NC(=O)c3cc4oc(C)c(C)c4[nH]3)cc2[nH]1

>  <system_tested>
SW-620 colon

>  <endpoint_value>
108

$$$$
>  <molecule>
COc1cc(C2CC(c3ccc(C)cc3)=NN2C=O)ccc1OCCN(C)C (stereo not given)

>  <system_tested>
SW-620 colon

>  <endpoint_value>
96.5

$$$$
>  <molecule>
O=Cc1ccccc1C(=O)O

>  <system_tested>
SW-620 colon

>  <endpoint_value>
102

$$$$
>  <molecule>
COc1ccc(-c2c3c(N)nc(-c4ccncc4)nc3nc3c2c(C)nn3-c2ccccc2)cc1

>  <system_tested>
SW-620 colon

>  <endpoint_value>
34.4

$$$$

Task item: Return reported growth. Input molecule: `O=C(COc1cccc(/C=C2\Oc3ccc4ccccc4c3C2=O)c1)c1ccc([N+](=O)[O-])cc1`
Reply: 80

Task item: Return reported growth. Input molecule: `CCCCCCCCN(CCO)CCCCCCCC`
Reply: 101

Task item: Return reported growth. Input molecule: `CN(C)c1ccc(-c2nc3ncc(Br)cc3o2)cc1`
Reply: 99.3

---

Tested on: HCC-2998 colon
Test: NCI-60 one-dose screen, 48 h
Conditions: 10 µM unless noted
About 83,000 compounds went through this panel and 20% of them were active in at least one assay; those are over-represented in the sample as a whole. The source made the active and inactive calls. The calls were made as follows: active = growth percent below 10; inactive = the rest.
Your answer must be one of the following: 1.0 = active, 0.0 = inactive

Example entries and their recorded answers appear below.
>  <compound>
CC(C)Sc1nc(-c2ccc(Br)cc2)c(C#N)c(N2CCCCC2)n1

>  <answer_label>
0.0

$$$$
>  <compound>
CCSCC1CC(O)(c2ccccc2)C(c2ccccc2)C(c2ccc(Cl)cc2)O1 (stereo not given)

>  <answer_label>
0.0

$$$$
>  <compound>
Oc1ccccc1/C=N/N1CCCCCC1

>  <answer_label>
0.0

$$$$

Task item: Hey, what did the test say about CCC(C)C1NC(=O)C(CCNCS(=O)(=O)O)NC(=O)C(NC(=O)C(CCNCS(=O)(=O)O)NC(=O)C(NC(=O)C(CCNCS(=O)(=O)O)NC(=O)CCCCC(C)C)C(C)O)CCNC(=O)C(C(C)O)NC(=O)C(CCNCS(=O)(=O)O)NC(=O)C(CCNCS(=O)(=O)O)NC(=O)C(C(C)CC)NC1=O (stereo not given) ?
Reply: 0.0

Task item: Hey, what did the test say about `Cc1cc2c(cc1C)[n+](Cc1ccc3ccccc3n1)cn2Cc1ccc2ccccc2n1` ?
Reply: 1.0

Task item: Hey, what did the test say about `O=C(Nc1nc(-c2ccc(Cl)cc2)cs1)c1cc(-c2ccc(Br)cc2)nc2ccc(Cl)cc12` ?
Reply: 0.0

Task item: Hey, what did the test say about COc1cccc(C2=NN(C(C)=O)C(c3cc(OC)c(OC)c(OC)c3)C2)c1 (stereo not given) ?
Reply: 0.0

---

Test system: SF-539 CNS
Experiment: NCI-60 one-dose screen, 48 h
Conditions: 10 µM unless noted
Compounds without any hit were thinned out: in the full panel of roughly 83,000, 20% have a hit. Calls of active or inactive are those of the source. Rule for the calls: active = growth percent below 10; inactive = the rest.
Your answer must be one of the following: 1.0 (active), 0.0 (inactive)

Example entries and their recorded answers appear below.
>  <compound>
C[C@@H]1C[C@@H]([C@@H](CC2CC(=O)NC(=O)C2)OC(=O)CC(=O)c2ccccc2)C(=O)[C@@H](C)C1

>  <answer_label>
1.0

$$$$
>  <compound>
COc1ccc(-n2cnc3cc(C(=O)N4CCCCC4)ccc32)cc1

>  <answer_label>
0.0

$$$$
>  <compound>
CCN(CC)CCNCC(=O)Oc1ccc(/C=C/C(=O)CC(=O)/C=C/c2ccc(OC(=O)CNCCN(CC)CC)c(OC)c2)cc1OC

>  <answer_label>
1.0

$$$$
>  <compound>
O=C(Nc1nc2c(C(F)(F)F)cccc2s1)c1cc(Cl)ccc1O

>  <answer_label>
0.0

$$$$

Task item: Hey, what did the test say about `N#Cc1ccc(-c2csc(Nc3ccc4nc5n(c(=O)c4c3)CCC5)n2)cc1` ?
Reply: 0.0

Task item: Hey, what did the test say about `C(#Cc1ccccc1C#Cc1ccccn1)c1ccc(OCCCCCCOc2ccc(C#Cc3ccccc3C#Cc3ccccn3)cc2)cc1` ?
Reply: 0.0

Task item: Hey, what did the test say about `CC(=O)[C@H]1CC[C@H]2[C@@H]3C[C@H](C)C4=CC(=O)CC[C@]4(C)[C@H]3C(=O)C[C@]12C` ?
Reply: 0.0

Task item: Hey, what did the test say about `COc1ccc(CNC(=O)c2c(C)n([O-])c3ccc(OC)cc3[n+]2=O)cc1` ?
Reply: 0.0

Task item: Hey, what did the test say about `CCN(CC)c1ccc(/C=C/C(=O)c2cccc(NS(C)(=O)=O)c2)cc1` ?
Reply: 0.0
